test: yeast display, Sf9 membrane polyspecificity reagent, FACS + sequencing; frameworks hold sequencing errors
ASSAY METRIC: polyreactivity (PSR sort gate)

QVQLVESGGGLVQAGGSLRLSCAASGSIFWPYAMGWYRQAPGKERELVAAITWSGSSTYYADSVKGRFTISRDNAKNTVYLQMKSLKPEDTAVYYCAKRGWGIYDYWGQGTQVTVSS: low polyreactivity
QVQLVESGGGLVQAGGSLRLSCAASGRTFYQYAMGWYRQAPGKERELVAAISRRGGTTYYADSVKGRFTISRDNAKNTVYLQMNSLKPEDTAVYYCAASSLPAGEMYYWGQGTQVTVSS: high polyreactivity
QVQLVESGGGLVQAGGSLRLSCAASGRTFRYYAMGWYIQAPGKERELVAAISWRGGSTYYAYSVKGRFTLSRDYAKNTVYLQINSLKPEDTAVYYCAAGILFGHYDYWGQATQVTVSS: high polyreactivity
QVQLVESGGGLVQAGGSLRLSCAASGRNFPSYAMGWYRQAPGKERELVAAISFSGASTYYADSVKGRFTFSRDNAKNTVYLQMNSLKPEDTAVYYCNASGVGADVQWSWEEGDYWGQGTQVTVSS: low polyreactivity

Next sequence, please.
## Task Query (sequence): `QVQLVESGGGLVQAGGSLRLSCAASGSTFSQYAMGWYRPAPGKERELVAAINYIGGSTYYADSVKGRFTISRDNAKNTVYLQMNSLKPEDTAVYYCAVQRWKSSVSFGYWGQGTQVTVSS` ; field requested: polyreactivity (PSR sort gate)
## Result low polyreactivity

====

assay: yeast display, Sf9 membrane polyspecificity reagent, FACS + sequencing; frameworks hold sequencing errors
ASSAY METRIC: polyreactivity (PSR sort gate)

Examples with their reported polyreactivity (PSR sort gate) follow.
QVQLVESGGGLVQAGRSLRLSCAASGRIFRQNAMGWYRPAPGKETELVAAIDWNGTSTYADSVKGRFTISRDNAKNTVYFQLNSLKPVDTAVYYCTARYGRTSPDGDYWGQGTQVTVSS: low polyreactivity
QVQLVESGGGLVQAGGSLRISCAASGRTFGPYAMGWYIQAPGKEREFVAAISYSGGSTYYADSVKGRFTISRDNAKNTVYLQMNSLKPEDTAVYYCAVDIDSNSGTRDYWGQGTQVTVSS: low polyreactivity
QVQLVESGGGLVQAGGSLRLSCAASGGIFVRYAMGVYRQAPGKERELVAAITGTGSSTYYADSVKGRFTISRDNAKNTVYLQMNSLKPEDTAVYYCAAARYSNYGYWGQGTQVTVSS: high polyreactivity
QVQLVESGGGLVQAGGSLRLSCAASGRTFYYYAMGWYRQAPGKERELVAAIRWRATSTFYADSVKGRFTISRDNAKNTVYLQMNSLKPEDTAVYYCATRGRWGYSGRSQGYSIYNYWGQGTKVTVSS: high polyreactivity
QVQLVESGGGLVQAGGSLRLSCAASGRILGVNAMGWYRQAPGKERELVAAINWNGGSTYYADSVKGRFTISRDNAKNTVYLQMNSLKPEDTAVYYCAAERSLYYVYSREYWGQGTQVTVSS: low polyreactivity

For every record below, what is its polyreactivity (PSR sort gate)?
1. QVQLVESGGGLVQAGGSLRLSCAASGFIFSYNAMGWYRQAPGKERELVASISRRSGITYYADSVKGRFTISRDNAKNTVYLQMNSLKPEDTAVYYCAVTQNSKSTKIRPDQGDYWGLGTQVTVSS
2. QVQLVESRGGLVQAGGSLRLSCAASGLTFLYNAMGWYRQAPGKERELVAAISQSAGSTYYADSVKGRFTISRDNAKNTVYLQMNSLKPEDTAVYYCAAEWDTPDLVIYDYWGQGTQVTVSS
3. QVQLVESGGGLVQAGGSLRLSCAASGLTLYKNGMGWYRQAPGKERELVAVISRSGGRTYYADSVKGRFTISRDNAKNTVYLQMNSLKPEDTAVYYCAAAWYSSSRYQGIYRFDYWGQGTQVTVSS
4. QVQLVESGGGLVQAGGSLRLSCAASGFTFDSNAMGWYRQAPGKERELVAAISKRGGSTYYADSVKGRFTISRDNAKNTVYLQMNRLKPEDTAVYYCAADNYNSGGTRHMYYWGQGSQVTVSS
5. QVKLVESGGGLVQAGGSLRLSCADSGSIFGGNTMVWYRQAPGKEREFVAAITWGGNTYYADSVKGRFTISRDNAKNTVYLQTNSLKPEDTAVYYCAAGGRPQYWGRYYYWGQGTQVTVSS
6. QVQLVESGGGLVQAGGSLRLSCAAAGSIFRINDMGWYRQATGKERELVAAITFSGGSTYADSVKGRFTISRDNAKNTVYLQMNSLKPEDTAVYYCNADGAYWTDYYLYDYWGHGTQVTVSS

## Result
["high polyreactivity", "low polyreactivity", "high polyreactivity", "high polyreactivity", "high polyreactivity", "low polyreactivity"]

====

assay: yeast display, Sf9 membrane polyspecificity reagent, FACS + sequencing; frameworks hold sequencing errors
ASSAY METRIC: polyreactivity (PSR sort gate)

Examples with their reported polyreactivity (PSR sort gate) follow.
QVQLVESVGGLVQAGGSLPLTCAASGYTIGPNVMGWYRQAPGKERELVASITSGTSTYYADSVKGRFTISRDNAKNTVYLQMNSLKPEDTAVYYCAAKYSFGRTRWYGYWGQGTQVTVSS: high polyreactivity
QDQLVESGGGLVQAGGRLRLSCAASGYIFAYNAMGRDRQAPGKERELVAAISYSGGRTYYAYSVKGRFTISRYIAKNTVYLQMKSLKPEVTAVYYCAAPFRVGAGPATYDYWGQGTQVTVSS: high polyreactivity
QVQLVESGGGLVQAGGSLRLSCAASGYIFDFYDMGWYRQAPGKERELVAAITSGGSTNYADSVKGRFTISRDNAKNTVYLQMNSLKPEDTAVYYCAASFVGHIYWGARVPYYYNHDYWGQGTQVTVSS: high polyreactivity
QVQLLESGGGLVQAGGSLRLSCAASGRSYCNNVMGWYRQEPGKERELVAAITFSGTSTYYADSVKVRFTISRDNAKNTVYLQMNSLKPEDTAVYYCAKYRYADYYSPCYDYWGQGTQVTVSS: low polyreactivity
QVQLVESGGGLVQAGGSLRLSCAASGSTLSIYAMGWYRQAPGKERELVATIRWSAGRTSYADSVKGRFTISRDNAMNTVYLQMNSLKPEDTAVYSCNAVRYRYYFYWTGKSYDYWGQGTQVTVSS: high polyreactivity
QVQLVESGGGLVQAGGSLRLSCAASGRTFGIYAMGWYRQAPGKERELVAAITWSGDSTYYADSVKGRFTISRDNAKNTVYLQMNSLKPEDTAVYYCAADYFGVTSVRYDYWGQGTQVTVSS: low polyreactivity

For every record below, what is its polyreactivity (PSR sort gate)?
1. QVQLVESGRGLVQAGGSLRLSCAASGRIFLYYAMGWYRQAPGKEREFVAAITYIGGSTYYADSVKGRFTISRDNAKNTVYLQMNSLKPEDTAVYWGQGTQVTVSS
2. QVQLVESGGGLVQAGGSLRLSCAASGSTFHPNGMGWYRQAPGQEREFVAAIRRSGGSTYYADSVKGRFTISRDNAKNTVYLQMNSLKPEDTAVYYCAAKHYYYSPYVRYDPPPGYYWGQGTQVTVSS
3. QVQLVESGGGLVQAGGSLRLSCAASGRIFSANAMGWYRQAPRKERELVAGIDSGGSTNYADSVKGRFTISRDNSKNTVYLQMNSLKPEDTAVYYCNAEDHKYEYDSWGQGTQVTVSS

## Result
1: low polyreactivity; 2: high polyreactivity; 3: low polyreactivity

For every record below, what is its polyreactivity (PSR sort gate)?
1. QDQHGESGGGLVQAGGRLRLSGAASGSTFPGNAMGWYRQAPGKERELVAAITSGGRTYYADSVKGRFTISRDNAKNTVYLQMNSLKPEDTAVYYCAVSTPIQRHGETYAKFDYWGQGTQVTVSS
2. QVQLVESGGGLVQAGGSLRLSCAASGRTFYRYTMGWYRQAPGKERQLVAGISWRGGTTYYADSVKGRFTISRDNAKNTVYLQMNSLKPEDTAVYYCAAKAGYRYGSLAYYKYDYWGLGTQVTVSS

## Result
low polyreactivity
high polyreactivity

====

assay: yeast display, Sf9 membrane polyspecificity reagent, FACS + sequencing; frameworks hold sequencing errors
ASSAY METRIC: polyreactivity (PSR sort gate)

Examples with their reported polyreactivity (PSR sort gate) follow.
QVQLVESGGGLVQAGGSLRLSSAASGRIFIDYAMGWYRQAPGTDRELVATITSSGGSTYYADSVKGRFTISRDNAKNTVYIQMTSLKPVDTAVYYCNAKERYYFGNYKYGYWGQGTQVTVSS: low polyreactivity
QVQLVESGGGLVQAGGSLRLSCAASGRTFNYYAMGWYRQAPGKERESVAAISWRGGSTYYADSVKGRFTISRDNAKNTVYLQMNSLKPEDTAVYYCNKYFSWRPYSYYYWGQGTQVTVSS: high polyreactivity
QVQLVESGGGLVQAGGSLRLSCAASGITFEGYAMGWYRQAPGKERELVAAIRSSGTSTYYADSVKGRFTISRDNAMNTVYLQMNSLKPEDYAVYYCNRARSSSRYDYWGQGTQGTVSS: low polyreactivity
QVQLVESGGGLVQAGGSLRLSCAASGRTFSSYTMGWYRQAPGKERELVASITNNGGSTYYADSVKGRFTISRDNEKNTVYLQMNSLKPEDTAGYYCNANSRVGLQDKKPRDYDGYDSWGQGTQVTVSS: low polyreactivity
QVQLVESGGGLVQAGGSLRLSCAASGLIFYLYAMGWYRQAPGKEREFVAAITTSGGSTHYADSVKGRFTISRDNAKNTVYLQMNSLKPEDTAVYYCAADDYFHGPGLEFDYWGQGTQVTVSS: low polyreactivity
QVQLVESGGGLVQAGGSLRLSCAASGSIFQVNAMGWYRQAPGKERELVASITTSGGSTYYADSVKGRFTISRDNAKNTVYLQMNSLKPEDTAVYYCAADHWSQDYDYWGQGTQVTVSS: low polyreactivity
QVQLVESGGGLVQAGGSLRLSCAASGRTFHVYAMGWYRPAPGKERELVATITDGSTNYADSVKGRFTISRDNAKNTVYLQMNSLKPEDSAVYYCATVRAWIPSGDYEYWGQGTQVTVSS: low polyreactivity
QVQLVESGGGLVQAGGSLRLSCAASGFNFRLYAMGWYRQAPGKERELVATITQRGGRTYYADSVKGRFTISLDNAHNTVYLQMNSLKPEDTAVYYCAATWTVTTGTKFDYWGQGTQVTVAS: high polyreactivity

For every record below, what is its polyreactivity (PSR sort gate)?
1. QVQLVESGGGLVQAGGSLRLSSAASGRTFRYYAMGWYRQAPGKERELVASISDGGSTNYADSVKGRFTISRDNAKNTVYLQMNSLKPEDTAVYYCAADGWWQYDYWGQGTQVTVSS
2. QVQLVESGGGLVQAGGSIRLSCAASGFIFWANAMGWYIQAPGKERELVAAISGSGGRTYYADSVKGRFTISRDNAKNTVYLQMNSLKPEDTAVYYCAAKVSAWKKKSEMNYWGQGTQVTVSS
3. QVQLVESGRGLVQAGGSLRLSCAASGLTFSKYAMGWYRQAPGKERELVATISRSGGSTYYADSVKGRFTISRDNAKNTVYVQMNSLKPEDTAVYYCAAGSILYGATGEYIYWGQGTQVTVSS

## Result
low polyreactivity
high polyreactivity
high polyreactivity
